Task for the reader: assign each of the following compounds its reported IC50.
Molecular target: kinases (kinome) (Homo sapiens, UniProt Q13188)
Construct: determined in kinobeads assays with mass spectrometry detection of kinases as described previously; endogenous in cells
Sequence (Q13188 1-491): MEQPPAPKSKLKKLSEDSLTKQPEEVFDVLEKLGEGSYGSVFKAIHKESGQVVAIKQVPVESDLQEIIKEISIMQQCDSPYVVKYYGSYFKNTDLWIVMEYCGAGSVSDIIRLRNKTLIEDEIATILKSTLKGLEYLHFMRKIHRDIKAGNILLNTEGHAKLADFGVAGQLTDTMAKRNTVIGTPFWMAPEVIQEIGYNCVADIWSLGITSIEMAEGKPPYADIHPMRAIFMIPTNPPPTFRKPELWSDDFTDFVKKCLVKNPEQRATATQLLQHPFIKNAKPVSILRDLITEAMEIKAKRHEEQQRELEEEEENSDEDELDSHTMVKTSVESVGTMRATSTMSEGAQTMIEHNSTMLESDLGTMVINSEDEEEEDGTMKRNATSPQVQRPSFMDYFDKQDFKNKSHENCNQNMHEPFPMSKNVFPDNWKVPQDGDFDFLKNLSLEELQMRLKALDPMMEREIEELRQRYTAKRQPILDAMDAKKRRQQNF
Test: kinobeads assay with mass spectrometry detection of kinases (kinase selectivity profile)
Conditions: MST2 (STE), IPI00411984

Here are 2 compounds together with their reported answers.
C[C@H]1COCCN1c1nc(-c2ccc(NC(=O)NC3CC3)cc2)cc(-c2cccnc2S(C)(=O)=O)n1 : > 10 µM
C[C@H]1COCCN1c1cc(-c2ccccn2)nc(-c2ccc(NC(=O)NCCO)cc2)n1 : > 10 µM

Now take the following compound into account.
Item under review: C[C@H]1COCCN1c1nc(-c2ccc(NC(=O)NC3CC3)cc2)cc(-c2cc(F)ccc2S(C)(=O)=O)n1 . Reported IC50?
> 10 µM
